Some compounds, each annotated with its measured inhibition at 0.01 wt %.
Biological target: β-glucuronidase Type VII-A derived from Escherichia coli (Escherichia coli, UniProt P05804)
Construct: purchased Sigma-Aldrich Corporation
Sequence (P05804 whole entry): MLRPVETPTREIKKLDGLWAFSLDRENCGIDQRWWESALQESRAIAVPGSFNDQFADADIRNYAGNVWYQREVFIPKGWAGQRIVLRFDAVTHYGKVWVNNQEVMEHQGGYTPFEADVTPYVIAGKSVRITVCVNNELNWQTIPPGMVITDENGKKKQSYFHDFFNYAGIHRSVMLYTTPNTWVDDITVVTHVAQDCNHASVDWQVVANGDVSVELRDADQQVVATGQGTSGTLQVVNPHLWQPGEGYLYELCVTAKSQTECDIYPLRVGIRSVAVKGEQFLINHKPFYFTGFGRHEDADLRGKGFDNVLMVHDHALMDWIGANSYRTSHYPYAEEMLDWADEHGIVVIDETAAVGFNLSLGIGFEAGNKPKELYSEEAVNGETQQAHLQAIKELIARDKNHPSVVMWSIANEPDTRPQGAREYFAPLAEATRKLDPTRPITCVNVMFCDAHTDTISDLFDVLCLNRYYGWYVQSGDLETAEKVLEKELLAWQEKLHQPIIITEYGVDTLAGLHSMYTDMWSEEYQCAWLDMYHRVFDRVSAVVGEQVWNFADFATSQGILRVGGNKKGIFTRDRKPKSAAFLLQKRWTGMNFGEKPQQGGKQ
Test: Inhibition of β-glucuronidase activity (PNPG substrate, absorbance at 400 nm)
Format: biochemical
Details: 0.01 wt % in reaction solution; 1.6 units/mL enzyme; 37° C., 2 hours; pH 6.8; read-out: Inhibition rate (%) Concentration 0.01%
Description: 100 μL of a 2 mM PNPG aqueous solution, 40 μL of a 0.5 M phosphate buffer (pH 6.8), 38 μL of ion exchanged water and 2 μL of a 10 or 1 wt % dipropylene glycol (DPG) solution of various compounds or plant extracts were mixed in a bottle γ-ray sterilized in advance, and subsequently 20 μL of a β-glucuronidase aqueous solution adjusted to 16 units/mL was added, in order to allow the enzyme to react in a thermostat bath at 37° C. for 2 hours. […]

{"compound": "O=C1CCCCCCCC=CCCCCCCC1 [9-Cycloheptadecen-1-one, 9-cycloheptadecen-1-one]", "inhibition at 0.01 wt %": "96.3%"}
{"compound": "O=C1CCCCCCC=CCCCCCCC1 [8-Cyclohexadecen-1-one, 8-cyclohexadecen-1-one]", "inhibition at 0.01 wt %": "99.9%"}
{"compound": "CCCCCCCCCC(C)C=O (centres unmarked) [2-Methylundecanal, 2-methylundecanal]", "inhibition at 0.01 wt %": "57%"}
{"compound": "CC(C)c1ccc(C=O)cc1 [Cuminaldehyde, cuminaldehyde]", "inhibition at 0.01 wt %": "37.8%"}
{"compound": "O=CCc1ccccc1 [Phenylacetaldehyde, phenylacetaldehyde]", "inhibition at 0.01 wt %": "31.9%"}

====

target: β-glucuronidase Type VII-A derived from Escherichia coli (Escherichia coli); construct: purchased Sigma-Aldrich Corporation; assay: Inhibition of β-glucuronidase activity (PNPG substrate, absorbance at 400 nm); format: biochemical; conditions: 2 h, pH 6.8, read-out: Inhibition rate (%) Concentration 0.01%

{"molecule smiles": "O=C/C=C/c1ccccc1", "inhibition at 0.01 wt %": "96.8%"}
{"molecule smiles": "COc1ccc(C=O)cc1", "inhibition at 0.01 wt %": "15.3%"}
{"molecule smiles": "OC/C=C/c1ccccc1", "inhibition at 0.01 wt %": "56.2%"}
{"molecule smiles": "CCOc1cc(C=O)ccc1O", "inhibition at 0.01 wt %": "38.5%"}

====

Some compounds, each annotated with its measured inhibition at 0.1 wt %.
biological target: β-glucuronidase Type VII-A derived from Escherichia coli (Escherichia coli, UniProt P05804); construct: purchased Sigma-Aldrich Corporation; assay: Inhibition of β-glucuronidase activity (PNPG substrate, absorbance at 400 nm); assay type: biochemical; conditions: 2 h, pH 6.8, read-out: Inhibition rate (%) Concentration 0.1%

{"molecule smiles": "OC/C=C/c1ccccc1", "inhibition at 0.1 wt % (%)": 93.5}
{"molecule smiles": "CCOc1cc(C=O)ccc1O", "inhibition at 0.1 wt % (%)": 78.5}
{"molecule smiles": "COc1ccc(C=O)cc1", "inhibition at 0.1 wt % (%)": 85.9}
{"molecule smiles": "O=C/C=C/c1ccccc1", "inhibition at 0.1 wt % (%)": 100}

====

biological target: β-glucuronidase Type VII-A derived from Escherichia coli (Escherichia coli); construct: purchased Sigma-Aldrich Corporation; assay: Inhibition of β-glucuronidase activity (PNPG substrate, absorbance at 400 nm); type: biochemical; details: 0.01 wt % in reaction solution; 1.6 units/mL enzyme; 37° C., 2 hours; pH 6.8; read-out: Inhibition rate (%) Concentration 0.01%
Class (required): determined from inhibition at 0.01 wt %; valid ranges are low bracket = under 50%, middle bracket = from 50% up to 60%, high bracket = 60% and over

{"compound": "O=CCCc1ccccc1 [3-Phenylpropanal, 3-phenylpropanal]", "classification": "low bracket"}
{"compound": "CC1CCCCCCCCCCCCC(=O)C1 (stereo not shown) [3-Methylcyclopentadecanone, 3-methylcyclopentadecanone]", "classification": "middle bracket"}
{"compound": "C=CC(C)(CCC=C(C)C)OC(C)=O (stereo not shown) [Linalyl acetate, linalyl acetate]", "classification": "high bracket"}
{"compound": "CC/C=C\\CCOC(=O)c1ccccc1 [cis-3-Hexenyl benzoate, cis-3-hexenyl benzoate]", "classification": "low bracket"}
{"compound": "CC(C)(O)CCCC1=CCC(C=O)CC1 (stereo not shown) [Lyral]", "classification": "middle bracket"}
{"compound": "O=C1CCCCCCCCCCCCCC1 [Cyclopentadecanone, cyclopentadecanone]", "classification": "low bracket"}
{"compound": "O=C1CCC=CCCCCCCCCCC1 [4-Cyclopentadecen-1-one, 4-cyclopentadecen-1-one]", "classification": "high bracket"}
{"compound": "COC1CCCCCCCCCCC1 [Palisandin, 1-methoxycyclododecane]", "classification": "middle bracket"}
{"compound": "O=C1CCCCCCCCOCCCCCCO1 [10-Oxa-16-hexadecanolide, 10-oxa-16-hexadecanolide]", "classification": "high bracket"}
{"compound": "CC(C)=CCC/C(C)=C/CO [Geraniol, geraniol]", "classification": "middle bracket"}
{"compound": "CC(C)=CCC/C(C)=C\\CO [Nerol, nerol]", "classification": "low bracket"}
{"compound": "COc1ccc(C)cc1 [p-Cresyl methyl ether, p-cresyl methyl ether]", "classification": "low bracket"}
{"compound": "C=CC(C)(O)CCC=C(C)C (stereo not shown) [Linalool, linalool]", "classification": "low bracket"}
{"compound": "CC(C)=CCCC(C)=CC=O [Citral, citral]", "classification": "low bracket"}
{"compound": "C=CCc1ccc(OC)cc1 [Estragole, estragole]", "classification": "high bracket"}

====

target: β-glucuronidase Type VII-A derived from Escherichia coli (Escherichia coli); construct: purchased Sigma-Aldrich Corporation; assay: Inhibition of β-glucuronidase activity (PNPG substrate, absorbance at 400 nm); type: biochemical; conditions: 0.01 wt % in reaction solution; 1.6 units/mL enzyme; 37° C., 2 hours; pH 6.8
# label = true if Inhibition rate (%) Concentration 0.01% >= 50% else false

{"molecule": "CC(=O)OC(C)(C)C1CC=C(C)CC1 (stereo not shown) [Terpinyl acetate, terpinyl acetate]", "classification": "true"}
{"molecule": "O=C1CCC=CCCCCCCCCCCO1 [4(5)-Cyclopentadecenolide, 4(5)-cyclopentadecenolide]", "classification": "false"}
{"molecule": "CC(=O)/C=C/C1=C(C)CCCC1(C)C", "classification": "false"}
{"molecule": "CC1=CC(C)C(C=O)CC1 (stereo not shown) [Ligustral, dimethyltetrahydrobenzaldehyde]", "classification": "false"}
{"molecule": "CCC(=O)/C=C/C1C(C)=CCCC1(C)C (stereo not shown)", "classification": "true"}
{"molecule": "O=CCCC=C1CC2CC1C1CCCC21 (stereo not shown)", "classification": "true"}
{"molecule": "C/C=C\\C(=O)C1C(C)=CCCC1(C)C (stereo not shown)", "classification": "false"}
{"molecule": "CCCCCC1=CCCC1=O", "classification": "true"}
{"molecule": "CC(=O)C1(C)CC2=C(CCCC2(C)C)CC1C (stereo not shown)", "classification": "true"}
{"molecule": "CC/C=C\\CC1=C(C)CCC1=O [cis-Jasmone, cis-jasmone]", "classification": "true"}
{"molecule": "O=C1CCCCC/C=C\\CCCCCCCCO1 [7-Cyclohexadecenolide, 7-cyclohexadecenolide]", "classification": "true"}
{"molecule": "CC(=O)/C(C)=C/C1C(C)=CCCC1(C)C (stereo not shown)", "classification": "true"}
{"molecule": "CC(C)=CCCC(C)CC#N (stereo not shown)", "classification": "false"}
{"molecule": "CC(=O)/C=C/C1C(C)=CCCC1(C)C (stereo not shown)", "classification": "false"}
{"molecule": "CC(C=O)Cc1ccc(C(C)C)cc1 (stereo not shown)", "classification": "true"}
{"molecule": "C/C=C/C(=O)C1=C(C)CCCC1(C)C", "classification": "false"}

====

molecular target: β-glucuronidase Type VII-A derived from Escherichia coli (Escherichia coli, UniProt P05804); construct: purchased Sigma-Aldrich Corporation; assay: Inhibition of β-glucuronidase activity (PNPG substrate, absorbance at 400 nm); assay type: biochemical; conditions: 0.001 wt % in reaction solution; 1.6 units/mL enzyme; 37° C., 2 hours; pH 6.8
# label = 1 if Inhibition rate (%) Concentration 0.001% >= 60% else 0

{"compound": "O=C/C=C/c1ccccc1", "classification": 0}
{"compound": "O=C1CCCCC/C=C\\CCCCCCCCO1 [7-Cyclohexadecenolide, 7-cyclohexadecenolide]", "classification": 1}
{"compound": "O=C1CCC=CCCCCCCCCCC1", "classification": 1}
{"compound": "O=C1CCCCCCCCOCCCCCCO1 [10-Oxa-16-hexadecanolide, 10-oxa-16-hexadecanolide]", "classification": 1}
{"compound": "O=C1CCCCCCC=CCCCCCCC1", "classification": 1}
{"compound": "O=C(O)[C@@H](O)[C@H]1OC(=O)[C@H](O)[C@H]1O [D-Glucaro-1,4-lactone, D-glucaro-1,4-lactone, reference compound]", "classification": 0}
{"compound": "CC/C=C\\CC1=C(C)CCC1=O [cis-Jasmone, cis-jasmone]", "classification": 0}
{"compound": "CC(C=O)Cc1ccc(C(C)C)cc1 (centres unmarked)", "classification": 0}
{"compound": "CC(=O)/C(C)=C/C1C(C)=CCCC1(C)C (centres unmarked)", "classification": 0}
{"compound": "O=C1CCCCCCCC=CCCCCCCC1", "classification": 1}
{"compound": "O=C1CCCC=CCCCCCCCCCC1", "classification": 1}
